- METHOD: Half life in Sprague-Dawley rat at 1 mg/kg,iv and measured after 72 hrs by LC/MS/MS analysis
- Type: ADME, organism-based
- CONDITION_PARAMETERS: in vivo
Assignment: determine reported half-life for the given compounds.

QUERY: State its half-life: CN1CCCC[C@@H](N(c2cc(C#CC(C)(C)C)sc2C(=O)O)C(=O)[C@H]2CC[C@H](C)CC2)C1=O
RESULT: 2.79 h

QUERY: State its half-life: CN1CC[C@H](N(c2cc(C#CC(C)(C)C)sc2C(=O)O)C(=O)[C@H]2CC[C@H](C)CC2)C1=O
RESULT: 3.07 h

QUERY: State its half-life: CN1CC[C@@H](N(c2cc(C#CC(C)(C)C)sc2C(=O)O)C(=O)[C@H]2CC[C@H](C)CC2)C1=O
RESULT: 2.73 h

QUERY: State its half-life: CN1CCCC[C@H](N(c2cc(C#CC(C)(C)C)sc2C(=O)O)C(=O)[C@H]2CC[C@H](C)CC2)C1=O
RESULT: 2.12 h
